test system: Community 7; experiment: relative growth (AUC of 72 h growth curve relative to DMSO control, dAUC) (ratio); higher = more growth (less inhibition), active = hit call of the paper; conditions: 20 µM
Give 1 when the value for relative growth is at least 1. Give 0 when it is less.

The following molecules have reported results that may help.
N#Cc1c(Cl)c(Cl)c(Cl)c(C#N)c1Cl : 0
CS(=O)(=O)NC(=O)c1cc(Oc2ccc(C(F)(F)F)cc2Cl)ccc1[N+](=O)[O-] : 1

*Q* Quick check: does CC(COc1ccc(Oc2ccccc2)cc1)Oc1ccccn1 (configuration not stated) have relative growth greater than or equal to 1?
*A* 1

*Q* # bool: relative growth of COP(=O)(OC)OC=C(Cl)Cl >= 1
*A* 1

*Q* // inclusive: relative growth at least 1? input: CO/C=C(/C(=O)OC)c1ccccc1Oc1cc(Oc2ccccc2C#N)ncn1
*A* 0

*Q* Decide: relative growth of Clc1ccc(C(c2ccc(Cl)cc2)C(Cl)(Cl)Cl)cc1 >= 1?
*A* 1

*Q* Exam item: decide whether the reported relative growth for COC(=O)Nc1nc2ccccc2[nH]1 is at least 1.
*A* 0

*Q* Hi, just wondering whether Nc1c([N+](=O)[O-])ccc(Oc2ccccc2)c1Cl shows relative growth of 1 or higher.
*A* 0

*Q* Exam item: decide whether the reported relative growth for COCc1cnc(C2=NC(C)(C(C)C)C(=O)N2)c(C(=O)O)c1 (configuration not stated) is at least 1.
*A* 1

*Q* Could you verify whether the entry COP(N)(=O)SC (configuration not stated) shows relative growth of no less than 1?
*A* 1

*Q* Form field: relative growth at least 1? Entry: N#Cc1cc(Br)c(O)c(Br)c1
*A* 1

###

tested on: Oryzobacter 1 (Oryzobacter terrae); experiment: relative growth (AUC of 72 h growth curve relative to DMSO control, dAUC) (ratio); higher = more growth (less inhibition), active = hit call of the paper; details: 20 µM
metricName: relative growth

Value sought for every listed compound: relative growth.
1. Cc1cc(C2CC2)nc(Nc2ccccc2)n1
2. O=C(Nc1ccccc1-c1ccc(Cl)cc1)c1cccnc1Cl
3. Nc1c([N+](=O)[O-])ccc(Oc2ccccc2)c1Cl
4. Cc1cc(C(F)(C(F)(F)F)C(F)(F)F)ccc1NC(=O)c1cccc(I)c1C(=O)NC(C)(C)CS(C)(=O)=O
5. CC(C)CC(C)c1sccc1NC(=O)c1cn(C)nc1C(F)(F)F (stereo unspecified)
6. Cc1cc(C)nc(Nc2ccccc2)n1

*A*
["1.04 (inactive)", "0.99 (inactive)", "1.05 (inactive)", "0.97 (inactive)", 1.2, "0.978 (inactive)"]

###

test system: Aeromonas 2 (Aeromonas sobria); test: relative growth (AUC of 72 h growth curve relative to DMSO control, dAUC) (ratio); higher = more growth (less inhibition), active = hit call of the paper; settings: 20 µM
metricName: relative growth
Numbers only.

CN(C)C(CSS(=O)(=O)O)CSS(=O)(=O)O : 0.976

The following compounds each have a reported value; give each one's relative growth.
1. CN/C(=N\[N+](=O)[O-])NCc1cnc(Cl)s1
2. CCC(C)c1ccccc1OC(=O)NC (configuration not stated)
3. CC1(C)C(C=C(Cl)Cl)C1C(=O)OC(C#N)c1cccc(Oc2ccccc2)c1 (configuration not stated)
4. CS(=O)(=O)c1cc(C(F)(F)F)ccc1C(=O)c1cnoc1C1CC1
5. COP(=S)(OC)Oc1ccc(SC)c(C)c1
6. Cc1nnc(-c2ccccc2)c(=O)n1N
7. CC(C1CC1)C(O)(Cn1cncn1)c1ccc(Cl)cc1 (configuration not stated)

*A*
1. 0.976
2. 0.975
3. 1.04
4. 1.01
5. 0.974
6. 0.975
7. 0.942

Need relative growth for each of these compounds.
1. Cc1cccc2sc3nncn3c12
2. O=C(Nc1ccc(F)cc1F)c1cccnc1Oc1cccc(C(F)(F)F)c1
3. C[C@@H]1[C@@H](c2ccc(Cl)cc2)SC(=O)N1C(=O)NC1CCCCC1
4. COc1cccc(C(=O)NN(C(=O)c2cc(C)cc(C)c2)C(C)(C)C)c1C

*A*
0.988
0.98
1.02
0.969

###

Could you please report measured relative growth for the items listed next?
test system: Flavobacterium 2 (Flavobacterium succinicans); test: relative growth (AUC of 72 h growth curve relative to DMSO control, dAUC) (ratio); higher = more growth (less inhibition), active = hit call of the paper; details: 20 µM
Give bare numbers.

Some compounds with known relative growth results, for comparison:
N#CC(CCc1ccc(Cl)cc1)(Cn1cncn1)c1ccccc1 (stereo unspecified) : 0.856
Nc1c([N+](=O)[O-])ccc(Oc2ccccc2)c1Cl : 0.917
CC(C)N1C(=O)c2ccccc2NS1(=O)=O : 1.02
COP(N)(=O)SC (stereo unspecified) : 0.952
CC1COC(Cn2cncn2)(c2ccc(Oc3ccc(Cl)cc3)cc2Cl)O1 (stereo unspecified) : 0.988

Alright, here's another compound for you.
// relative growth (Flavobacterium 2 (Flavobacterium succinicans)) for Cc1cc(C(F)(C(F)(F)F)C(F)(F)F)ccc1NC(=O)c1cccc(I)c1C(=O)NC(C)(C)CS(C)(=O)=O = 1.2

###

test system: Pseudomonas 2 (Pseudomonas vancouverensis); assay: relative growth (AUC of 72 h growth curve relative to DMSO control, dAUC) (ratio); higher = more growth (less inhibition), active = hit call of the paper; conditions: 20 µM;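 active = growth AUC significantly below the DMSO wells by Dunnett test; inactive = the rest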
Pick one: 1.0 (active), 0.0 (inactive)

*Q* Please indicate how the test categorized O=C(O)COc1ccc(Cl)cc1Cl .
*A* 0.0

*Q* Answer briefly: the call reported for OC(Cc1ccccc1Cl)(Cn1nc[nH]c1=S)C1(Cl)CC1 (stereo not drawn) in this assay.
*A* 0.0

*Q* Record request — test call for CNC(=O)Oc1cccc2ccccc12
*A* 0.0

*Q* How was C/C(=N\C#N)N(C)Cc1ccc(Cl)nc1 classified in this test?
*A* 0.0

*Q* Please indicate how the test categorized Clc1ccc(C(c2ccc(Cl)cc2)C(Cl)(Cl)Cl)cc1 .
*A* 0.0

###

test system: Hymenobacter 1 (Hymenobacter glaciei); test: relative growth (AUC of 72 h growth curve relative to DMSO control, dAUC) (ratio); higher = more growth (less inhibition), active = hit call of the paper; settings: 20 µM
metricName: relative growth
Answers are plain numbers.

In the examples that follow, each entry is paired with its recorded relative growth.
COCC(=O)N(c1c(C)cccc1C)[C@H](C)C(=O)OC : 1.08
CC(C)CC(C)c1sccc1NC(=O)c1cn(C)nc1C(F)(F)F (stereo not given) : 0.945
O=[N+]([O-])c1cc(C(F)(F)F)c(Cl)c([N+](=O)[O-])c1Nc1ncc(C(F)(F)F)cc1Cl : 0.0968
C#CCN1C(=O)COc2cc(F)c(N3C(=O)C4=C(CCCC4)C3=O)cc21 : 1.06
CCOc1cc(Oc2ccc(C(F)(F)F)cc2Cl)ccc1[N+](=O)[O-] : 1.03

# batch size: 5; output relative growth per entry
1. CCCCC(C#N)(Cn1cncn1)c1ccc(Cl)cc1 (stereo not given)
2. Cc1cc(C)c(C2=C(OC(=O)CC(C)(C)C)C3(CCCC3)OC2=O)c(C)c1
3. CNC(=O)Oc1cccc(/N=C/N(C)C)c1
4. CC(C)OC(=O)Nc1cccc(Cl)c1
5. Cc1c(COC(=O)[C@@H]2[C@H](/C=C(\Cl)C(F)(F)F)C2(C)C)cccc1-c1ccccc1 (racemic)

*A*
1. 0.912
2. 0.896
3. 0.815
4. 1.09
5. 1.06

###

tested on: Pseudomonas 1 (Pseudomonas baetica); assay: relative growth (AUC of 72 h growth curve relative to DMSO control, dAUC) (ratio); higher = more growth (less inhibition), active = hit call of the paper; details: 20 µM
Mark label 0 for relative growth values under 1, and label 1 for everything at or above.

The examples below pair each entry with its known result.
CN/C(=N/CC1CCOC1)N[N+](=O)[O-] (stereo not drawn) : label 0
CC1(C)C(C(=O)OC(C#N)c2cccc(Oc3ccccc3)c2)C1(C)C (stereo not drawn) : label 1
CC1COC(Cn2cncn2)(c2ccc(Oc3ccc(Cl)cc3)cc2Cl)O1 (stereo not drawn) : label 1
CC(C)(C)C(O)(CCc1ccc(Cl)cc1)Cn1cncn1 (stereo not drawn) : label 1

*Q* Hello, I need to know if CC1=NNC(=O)N(/N=C/c2cccnc2)C1 has measured relative growth not below 1. Thanks!
*A* label 0

*Q* Is relative growth at least 1? Consider CCCCC(C#N)(Cn1cncn1)c1ccc(Cl)cc1 (stereo not drawn)
*A* label 0

*Q* Answer whether relative growth of Cc1cc(C2CC2)nc(Nc2ccccc2)n1 is greater than or equal to 1.
*A* label 1

*Q* Does CCCC1COC(Cn2cncn2)(c2ccc(Cl)cc2Cl)O1 (stereo not drawn) have a reported relative growth of at least 1?
*A* label 1

*Q* Quick check: does CCOCN(C(=O)CCl)c1c(C)cccc1CC have relative growth greater than or equal to 1?
*A* label 1

*Q* Confirm if relative growth reported for the molecule O=C1C2CC=CCC2C(=O)N1SC(Cl)(Cl)Cl (stereo not drawn) is 1 or above.
*A* label 0

*Q* State whether the measured relative growth reaches 1, counting equality as reaching it, for COP(=S)(OC)Oc1nc(Cl)c(Cl)cc1Cl
*A* label 1

Hey, just so you know, these numbers are from the supplement of paper PMC12067926.
